These measurements were taken from PubChem BioAssay (NCI).

- System: HS 578T breast
- Assay Details: NCI tumour cell line growth inhibition, 48 h
Entries and their GI50 values follow.

{"Molecule": "O=C(Nc1ccc(I)cc1)c1cccc([N+](=O)[O-])c1O", "GI50": "4130 nM"}
{"Molecule": "Cc1cc(C(O)(c2ccc(Nc3ccccc3)cc2)c2ccc(Nc3ccc(S(=O)(=O)O)cc3)cc2)ccc1N (stereo not drawn)", "GI50": "1500 nM"}
{"Molecule": "CCCOc1ccc(/C=N/Nc2cc(C)nc3ccc(Cl)cc23)cc1", "GI50": "2150 nM"}
{"Molecule": "CCC(C)CC(C)C(=O)c1c(O)ccn(O)c1=O (stereo not drawn)", "GI50": "3080 nM"}
{"Molecule": "FC(F)(F)c1ccc(-c2ncc(-c3ccc(C(F)(F)F)cc3)c(NCc3cc(C(F)(F)F)cc(C(F)(F)F)c3)n2)cc1", "GI50": "2830 nM"}
{"Molecule": "CCOC(=O)[C@@H](C)C[C@H](Cc1ccccc1)NC(=O)c1csc([C@@H](C[C@H](C(C)C)N(C)C(=O)[C@@H](NC(=O)[C@H]2C[C@H](O)CCN2C)C(C)C)OC(C)=O)n1", "GI50": "9.06 nM"}
{"Molecule": "O=C1c2cccnc2C(=O)c2c1c(C(=O)OCCc1ccccn1)c1ccccn21", "GI50": "< 33.8 nM"}

Pending molecule:
Requested field: GI50. Item: COc1cc(/C=C/C(=O)c2c(C)nc3ccccc3c2C)ccc1OCCCCOc1cc2c(cc1OC)C(=O)N1CCC[C@H]1C=N2
229 nM
